assay: yeast display, Sf9 membrane polyspecificity reagent, FACS + sequencing; frameworks hold sequencing errors
attribute measured: polyreactivity (PSR sort gate)

sequence_input=QDQLVESGGGLVHAGGSLLLSCAACRRLFSQYVMGWYRQAPGKERELVAAISSGGGRTYYADSVKGRFTISRDYAKNTVYLQLNSLKPEDTAVYYCATLRPSAYPQYDSWGQGTQVTVSS experimental_result="high polyreactivity"
sequence_input=QVQLVESGGGLVQAGGSLRLSCAASGRTFDYNAMGWYRPAPGKERELVAAISRSGGSTYYADSVKGRFTISRDNAKNTVYLQMNRLKPEDTAVYYCAADNYYLFALYEYGYWGQGTQVTVSS experimental_result="high polyreactivity"
sequence_input=QVQLVESGGGLVQAGGSLRLSCAASGSTFARYAMGWYRPAPGKERELVAVIRSGGSTNYADSVKGRFTISRDNAKNTVYLQMNSLKPEDTAGAADQWTIHRWATYGYWGQGTQVTVSS experimental_result="low polyreactivity"
sequence_input=QVQLVESAGGVVQAGGSLRKSCAASLGWYRQAPGKERELVATITSDAGTNYADSVKGRFTISRDNAKNTVYLQMNSLKPEDTAVYYCAATPPYRVYGVNYWGQGTQVTVSS experimental_result="low polyreactivity"
sequence_input=QVQLVESGGGLVQAGGSLRLSCAASGFTFRANGMGWYRQAPGKERELVATITSGGTTNYADSVKGRFTISRDNAKNTVYFQMNSLKPEDTAVLYCAKRFGPAYFRLYDYWGQGTQVTVSS experimental_result="low polyreactivity"
sequence_input=QVQLVESGGGLVQGGGSLRLRCAASGRSFKWYAMVWYRQAPGKDRELVAGISRGAGRTYYADSEKGRFTISRDNAKNTVYLQMNSLKADDTAVYYCAAVPSYHSTSPFYYWGLGTQVTVSS experimental_result="high polyreactivity"
sequence_input=QVQLVESGGGLVQAGGSLRLSCAASGSTFPLYAMGWYRQAPGKDRELVAAITWSGANTYYADSVKGRFTISRDNAKNTVSLQMNSLKPEDTAVYYCAAGSYAGFAVIGYYYWGQGTQVTVSS experimental_result="low polyreactivity"
sequence_input=QVQLVESGGGFVQAGGSLRLSCAASGSTFYHNAMGWYRPAPGKERELVAAISSGGSTHYADSVKGRFTISRDNEKNTVYLQKNILKPEDTAVYYCAKARPGFLYDHWGQGTQVTVSS experimental_result="high polyreactivity"
sequence_input=QVQLVESGGGLVQAGGSLRLSCAASGRIFAYNTMGWYRQAHGKEREFVAVITSGGSTNYADSVKGRFTISRDNAKNTVFLLLNSLKPEDTAVYYCAKRPYGRSGGSRYDYWGQGTKVTVSS experimental_result="high polyreactivity"
sequence_input=QVQLVESGGCLVQAGGSLRLSCAASGITLRYYAMGWYRQAPGKERELDAAISSGGRTYYADSVKGRFTISRDNATKTVYLPLNSLKPEETAVYYCNVVWSVTYDYWGHGTQVTVSS experimental_result="high polyreactivity"
sequence_input=QVQLVESGGGLVQAGGSLRLSCAASGFIFDAYAMGWYRQAPGKERELVAGISIGGRTNYADSVKGRFTISRDNAKNTVYLQMNSLKPEDTAVYYCAARNYRYYYGSYYRGPITNYEYWGQGTQVTVSS experimental_result="low polyreactivity"
sequence_input=QVQLVESGGGLVQAGGSLRLSCAASGSTFSQNAMGWYRQAPGKERELVAVISSSGGRTNYADSVKGRFTISRDNAKNTVYLQMNSLKPEDTAVYYCAKRLRVLYYYWGQGTQVTVSS experimental_result="high polyreactivity"
sequence_input=QVQLVESGGGLVQAGGSLRLSCAASGGTIHSYAMGLYRQANGKERDLVAAISGSGGSTYYADSVKGRFTISRDNAKNTFYLQMNSLKPEDTAVYYCAARDWGDGSEYYYWGQGTQVTVSS experimental_result="high polyreactivity"
sequence_input=QVQLVESGGGLVQAGGSLRLSCAASGRTFIEYAMGWYRQAPGKERELVAAISRNDGGSTYYADSVKGRFTISRDNAKNTVYLQMNSLKPEDTAVYYCAARRYISAHVRYGSWGQGTQVTVSS experimental_result="high polyreactivity"
sequence_input=QVQHVESGVGLVQAGGSLRLSCASSGLTFQYYSMGWYRQAPGKERELVAAISRRGGSTYYADSVKGRFTISRDNAKNTVYLQMNSLKPEDTAVYYCARYSYRGTNVRYDYWGQGTQVTVSS experimental_result="high polyreactivity"
sequence_input=QVQLVESGGGLVQAGGSLRLSCAASGIIFPVYAMGWFRQAPGKERELVATIDSGGGTYYADSVKGRFTISRDNANNTVYLQMNSLKPEDTAVYYCNASHPPKAELAHWGQGTQVTVSS experimental_result="low polyreactivity"
sequence_input=QVQLVESGGGLVQAGGSLRLSCAASGRTFAYYTMGWYRQAPGKERELVARISGYGGSTYYADSVKGRFTLSRDNAKNTVYLQMNSLKPEDTAVYYCNVVGAYYRYDYWGQGTQVTVSS experimental_result="high polyreactivity"
sequence_input=QVQLVESGGGLVQAGGSLRLSCAASGFTFVYNAMGWYRQAPGKERELVAAISSRGGSTFYADSVKGRFTISRDNAKNTVYLQMNSLKPEDTAVYYCNAVPGWTYDYWGQGTQVTVSS experimental_result="high polyreactivity"
sequence_input=QVQLVESGGGLVQAGGSLRLSCAASGSTFQTYAMGWSRQAPGKERELVAAITWRGGSTYYADSVKGRFTISRDNAKNTVYLQMNSLKPDDTAVYYCAAKWNGSHDHRAAYESWGQGTQVTVSS experimental_result="low polyreactivity"
sequence_input=QVQLVESGGGLVQAGGSLRLSCAASGSTFSYYAMGWYRQAPGKERELVAAIRKSGGSTYYADSVKGRFTISRDNAKNTVYLQMNSLKPEDTAVYSCAAVFSYYGWYSRYDYWGQGTQVTVSS experimental_result="low polyreactivity"
sequence_input=QVQLVESGVGLGQAGGSLRLSCAASGRTYWRYAMGWYRQAPGKETELVASINWNGGSTYYADSVKGRFTNSRDNAKNTVYLQMNSLKPEDTAVYYCAALRWPVYLFDYWGQGTQVTVSS experimental_result="high polyreactivity"

Source listed as the nanobody polyreactivity screen of Harvey et al. (2022).
